# Target of assay: Dipeptidyl peptidase 1 (Homo sapiens)
# Test description: Inhibition of Cathepsin C in human U-937 cells using H-Gly-Phe-AFC as substrate pretreated for 1 hr followed by substrate addition and incubated for 60 mins by microplate reader assay
# Type: cell-based
Recorded endpoint: IC50 (µM)
# value in µM; strip the unit string

Looking up `FC(F)(F)Oc1ccc(Nc2nc(Nc3ccc(-c4ccsc4)cn3)ncc2Cl)cc1` , I see its IC50 listed as 0.154

Looking up `FC(F)(F)c1cccc(Nc2nc(Nc3ccc(-c4cccs4)cn3)ncc2Cl)c1` , I see its IC50 listed as 0.396

Looking up `FC(F)(F)c1ccc(Nc2nc(Nc3ccc(-c4ccsc4)cn3)ncc2Cl)cc1` , I see its IC50 listed as 0.15

Looking up `CC(=O)Nc1ccc(-c2cnc(Nc3ccc(-c4ccsc4)cn3)nc2Nc2cccc(C(F)(F)F)c2)cc1` , I see its IC50 listed as 0.0865

Looking up `FC(F)(F)c1cccc(Nc2nc(Nc3ccc(-c4ccsc4)nc3)ncc2Cl)c1` , I see its IC50 listed as 0.216

Looking up `FC(F)(F)c1cccc(Nc2nc(Nc3ccc(-c4ccsc4)cn3)ncc2-c2ccc(Cl)cc2)c1` , I see its IC50 listed as 0.356

Looking up `CC(=O)Nc1cccc(Nc2nc(Nc3ccc(-c4ccsc4)cn3)ncc2Cl)c1` , I see its IC50 listed as 0.0702

* * *

Kindly state pIC50 for each of the entries shown.
# Target of assay: Dipeptidyl peptidase 1 (Homo sapiens, UniProt P53634)
# Sequence (P53634 25-134 limits assumed): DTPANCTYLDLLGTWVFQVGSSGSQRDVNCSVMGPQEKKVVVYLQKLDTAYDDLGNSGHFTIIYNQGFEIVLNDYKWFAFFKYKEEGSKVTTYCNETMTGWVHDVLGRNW
# Sequence (P53634 231-394 limits assumed): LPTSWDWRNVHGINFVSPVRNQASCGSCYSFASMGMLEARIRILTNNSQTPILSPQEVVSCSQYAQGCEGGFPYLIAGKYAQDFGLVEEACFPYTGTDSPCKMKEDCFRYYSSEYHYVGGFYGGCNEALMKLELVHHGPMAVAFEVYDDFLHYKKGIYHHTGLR
# Sequence (P53634 395-463 limits assumed): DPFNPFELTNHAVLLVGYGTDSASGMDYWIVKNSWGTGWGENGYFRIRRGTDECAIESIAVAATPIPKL
# Test description: Inhibition of Cathepsin C in human U-937 cells using H-Gly-Phe-AFC as substrate pretreated for 1 hr followed by substrate addition and incubated for 60 mins by microplate reader assay
# Type: cell-based
Note on units: pIC50 is unitless, being -log10 of a concentration expressed in mol/L.

Measured pIC50 (Dipeptidyl peptidase 1 (Homo sapiens, UniProt P53634)), entry `Fc1ccc(Nc2nc(Nc3ccc(-c4ccsc4)cn3)ncc2Cl)cc1` : 6.87

Measured pIC50 (Dipeptidyl peptidase 1 (Homo sapiens, UniProt P53634)), entry `FC(F)(F)c1cccc(Nc2nc(Nc3ccc(-c4ccsc4)cn3)ncc2Br)c1` : 6.75

Measured pIC50 (Dipeptidyl peptidase 1 (Homo sapiens, UniProt P53634)), entry `CC(=O)Nc1ccc(Nc2nc(Nc3ccc(-c4ccsc4)cn3)ncc2Cl)cc1` : 7.00

Measured pIC50 (Dipeptidyl peptidase 1 (Homo sapiens, UniProt P53634)), entry `Nc1cccc(Nc2nc(Nc3ccc(-c4ccsc4)cn3)ncc2Cl)c1` : 6.90

Measured pIC50 (Dipeptidyl peptidase 1 (Homo sapiens, UniProt P53634)), entry `FC(F)(F)c1cccc(Nc2nc(Nc3cccc(-c4ccsc4)c3)ncc2Cl)c1` : 6.75

Measured pIC50 (Dipeptidyl peptidase 1 (Homo sapiens, UniProt P53634)), entry `CC(=O)c1cccc(-c2cnc(Nc3ccc(-c4ccsc4)cn3)nc2Nc2cccc(C(F)(F)F)c2)c1` : 6.64

Measured pIC50 (Dipeptidyl peptidase 1 (Homo sapiens, UniProt P53634)), entry `Fc1ccc(Nc2nc(Nc3ccc(-c4ccsc4)cn3)ncc2Cl)cc1C(F)(F)F` : 6.70

Measured pIC50 (Dipeptidyl peptidase 1 (Homo sapiens, UniProt P53634)), entry `FC(F)(F)c1cccc(Nc2nc(Nc3ccc(-c4ccsc4)nn3)ncc2Cl)c1` : 6.74

Measured pIC50 (Dipeptidyl peptidase 1 (Homo sapiens, UniProt P53634)), entry `FC(F)(F)Oc1cccc(Nc2nc(Nc3ccc(-c4ccsc4)cn3)ncc2Cl)c1` : 6.61

Measured pIC50 (Dipeptidyl peptidase 1 (Homo sapiens, UniProt P53634)), entry `Cn1cc(-c2cnc(Nc3ccc(-c4ccsc4)cn3)nc2Nc2cccc(C(F)(F)F)c2)cn1` : 6.38

Measured pIC50 (Dipeptidyl peptidase 1 (Homo sapiens, UniProt P53634)), entry `Clc1cnc(Nc2ccc(-c3ccsc3)cn2)nc1NC1CCNCC1` : 6.77

Measured pIC50 (Dipeptidyl peptidase 1 (Homo sapiens, UniProt P53634)), entry `Fc1ccc(Nc2nc(Nc3ccc(-c4ccsc4)cn3)ncc2Cl)cc1F` : 6.76

* * *

# Test description: Half life in Sprague-Dawley rat at 10 mg/kg, po measured for 24 hrs by LC-MS/MS analysis
# Type: ADME, organism-based
# Recorded conditions: in vivo
Recorded endpoint: half-life (h)
# value in h; strip the unit string

Looking up `CC(=O)Nc1cccc(Nc2nc(Nc3ccc(-c4ccsc4)cn3)ncc2Cl)c1` , I see its half-life listed as 1.79

* * *

# Test description: MRT in Sprague-Dawley rat at 2 mg/kg, iv measured after 24 hrs by LC-MS/MS analysis
# Format: ADME, organism-based
# Recorded conditions: in vivo
Recorded endpoint: MRT (h)
# value in h; strip the unit string

Looking up `CC(=O)Nc1cccc(Nc2nc(Nc3ccc(-c4ccsc4)cn3)ncc2Cl)c1` , I see its MRT listed as 3.38

* * *

# Target of assay: Dipeptidyl peptidase 1 (Homo sapiens, UniProt P53634)
# Test description: Inhibition of Cathepsin C in human THP-1 cells using H-Gly-Phe-AFC as substrate pretreated for 1 hr followed by substrate addition and incubated for 60 mins by microplate reader assay
# Type: cell-based
Recorded endpoint: pIC50
Note on units: pIC50 is unitless, being -log10 of a concentration expressed in mol/L.

Looking up `Fc1ccc(Nc2nc(Nc3ccc(-c4ccsc4)cn3)ncc2Cl)cc1F` , I see its pIC50 listed as 6.80

Looking up `Fc1ccc(Nc2nc(Nc3ccc(-c4ccsc4)cn3)ncc2Cl)cc1` , I see its pIC50 listed as 6.98

Looking up `FC(F)(F)c1cccc(Nc2nc(Nc3ccc(-c4cccs4)cn3)ncc2Cl)c1` , I see its pIC50 listed as 6.89

Looking up `NC(=O)c1ccc(-c2cnc(Nc3ccc(-c4ccsc4)cn3)nc2Nc2cccc(C(F)(F)F)c2)cc1` , I see its pIC50 listed as 6.45

Looking up `Clc1cnc(Nc2ccc(-c3ccsc3)cn2)nc1Nc1ccccn1` , I see its pIC50 listed as 6.85

Looking up `FC(F)(F)c1cccc(Nc2nc(Nc3ccc(-c4ccsc4)cn3)ncc2Br)c1` , I see its pIC50 listed as 6.69

Looking up `FC(F)(F)c1ccc(Nc2nc(Nc3ccc(-c4ccsc4)cn3)ncc2Cl)cc1` , I see its pIC50 listed as 6.74

Looking up `Fc1ccc(Nc2nc(Nc3ccc(-c4ccsc4)cn3)ncc2Cl)cc1C(F)(F)F` , I see its pIC50 listed as 6.77

Looking up `CC(=O)Nc1ccc(-c2cnc(Nc3ccc(-c4ccsc4)cn3)nc2Nc2cccc(C(F)(F)F)c2)cc1` , I see its pIC50 listed as 6.99

Looking up `FC(F)(F)c1ccc(CNc2nc(Nc3ccc(-c4ccsc4)cn3)ncc2Cl)cc1` , I see its pIC50 listed as 7.05

Looking up `FC(F)(F)Oc1ccc(Nc2nc(Nc3ccc(-c4ccsc4)cn3)ncc2Cl)cc1` , I see its pIC50 listed as 6.96

Looking up `Nc1ccc(Nc2nc(Nc3ccc(-c4ccsc4)cn3)ncc2Cl)cc1` , I see its pIC50 listed as 6.96

Looking up `Clc1cnc(Nc2ccc(-c3ccsc3)cn2)nc1NC1CCNCC1` , I see its pIC50 listed as 6.92

* * *

# Test description: Cmax in Sprague-Dawley rat at 10 mg/kg, po measured after 24 hrs by LC-MS/MS analysis
# Type: ADME, organism-based
# Design: dose 10 mg/kg, time 24 hrs, route po
# Recorded conditions: in vivo
Recorded endpoint: Cmax (ng/mL)
# value in ng/mL; strip the unit string

Looking up `CC(=O)Nc1cccc(Nc2nc(Nc3ccc(-c4ccsc4)cn3)ncc2Cl)c1` , I see its Cmax listed as 177

* * *

# Target of assay: Cathepsin B (Homo sapiens, UniProt P07858)
# Test description: Inhibition of human recombinant Cathepsin B using Z-Leu-Arg-AMC as substrate pretreated for 60 mins followed by substrate addition and incubated for 30 mins by microplate reader assay
Recorded endpoint: IC50

Looking up `CC(=O)Nc1cccc(Nc2nc(Nc3ccc(-c4ccsc4)cn3)ncc2Cl)c1` , I see its IC50 listed as > 5 µM

Looking up `FC(F)(F)c1cccc(Nc2nc(Nc3cccc(-c4ccsc4)c3)ncc2Cl)c1` , I see its IC50 listed as > 5 µM

Looking up `Nc1ccc(Nc2nc(Nc3ccc(-c4ccsc4)cn3)ncc2Cl)cc1` , I see its IC50 listed as > 5 µM

* * *

# Target of assay: Dipeptidyl peptidase 1 (Homo sapiens)
# Test description: Inhibition of human recombinant Cathepsin C using H-Gly-Arg-AMC as substrate pretreated for 30 mins followed by substrate addition and incubated for 60 mins by microplate reader assay
Recorded endpoint: IC50 (nM)
# value in nM; strip the unit string

Measured IC50 (Dipeptidyl peptidase 1 (Homo sapiens)), entry `FC(F)(F)c1cccc(Nc2nc(Nc3ccc(-c4ccsc4)nc3)ncc2Cl)c1` : 103

Measured IC50 (Dipeptidyl peptidase 1 (Homo sapiens)), entry `FC(F)(F)Oc1ccc(Nc2nc(Nc3ccc(-c4ccsc4)cn3)ncc2Cl)cc1` : 92.4

Measured IC50 (Dipeptidyl peptidase 1 (Homo sapiens)), entry `FC(F)(F)c1cccc(Nc2nc(Nc3ccc(-c4ccsc4)cn3)ncc2Br)c1` : 98.6
